- assay protocol: AUC in cynomolgus monkey at 3 mg/kg, po
- Assay type: ADME, organism-based, Macaca fascicularis
- Design: dose 3 mg/kg, route oral
- settings: plasma
Decide using AUC alone. Strictly below 20 µM·h: yes. Equal to or above 20 µM·h: no.

# check: AUC < 20 µM·h for CC1(C)OC[C@H]([C@@H](CS(=O)(=O)c2ccc(Oc3ccc(OC(F)(F)F)cc3)cc2)N(O)C=O)O1 no

# check: AUC < 20 µM·h for CC1(C)OC[C@H](CC(CS(=O)(=O)c2ccc(Oc3ccc(OC(F)(F)F)cc3)cc2)N(O)C=O)O1 (stereo partly specified) yes

# check: AUC < 20 µM·h for O=CN(O)C(CS(=O)(=O)c1ccc(Oc2ccc(OC(F)(F)F)cc2)cc1)[C@H]1CCCO1 (stereo partly specified) no

# check: AUC < 20 µM·h for O=CN(O)C(Cc1ccc(C(=O)O)cc1)CS(=O)(=O)c1ccc(Oc2ccc(OC(F)(F)F)cc2)cc1 (stereo unspecified) yes

# check: AUC < 20 µM·h for O=CN(O)C(CS(=O)(=O)c1ccc(Oc2ccc(OC(F)(F)F)cc2)cc1)[C@H](O)CO (stereo partly specified) yes

# check: AUC < 20 µM·h for C[C@@H]1OC(C)(C)O[C@H]1C(CS(=O)(=O)c1ccc(Oc2ccc(OC(F)(F)F)cc2)cc1)N(O)C=O (stereo partly specified) no
